From: patent US20100028447A1

Experimental Protocol: Brain-to-plasma ratio after oral gavage or intranasal administration (Example 4)
Format: in vivo, Sprague-Dawley rats
Condition Notes: Sprague-Dawley, rat, in vivo, intranasal, 1 mg/kg, Average brain-to-plasma ratio
Value Type: Kp at 1 h
Please respond with just the number, no unit label.

Returns the measured Kp at 1 h for the input molecule. Input: CN[C@@H](C)C/C=C/c1cncc(OC)c1 [Compound A]
6.4
